Data provenance is PubChem BioAssay (NCI).

Tested on: HS 578T breast
Experimental Details: NCI tumour cell line growth inhibition, 48 h
The following compounds are listed with their measured TGI values.

In the examples that follow, each entry is paired with its recorded TGI.
C[N+](C)(C)CCN(Cc1cccs1)c1ccccn1 :: > 100 µM
CCN(CC)CCNc1ccc2nnn3c4ccc([N+](=O)[O-])cc4c(=O)c1c23 :: 73.8 µM
C[C@@]1(Br)C[C@@](C)(Cl)[C@@H](Br)CC1/C=C/Cl (stereo not given in full) :: 30.6 µM

Q) Reported TGI, compound CN(C)C1C(=O)C(C(=O)NCN2CCCC2)=C(O)C2(O)C(=O)C3=C(O)c4c(O)cccc4C(C)(O)C3CC12 (stereo not given) : ____
A) > 100 µM

Q) Another compound to check: Cc1nn(C(=O)c2ccccc2O)c2c1C(c1ccc3ccccc3c1O)SC(N)=N2 (stereo not given)
A) > 10 µM

* * *

The following compounds are listed with their measured TGI values.
Test system: SF-539 CNS
Experimental Details: NCI tumour cell line growth inhibition, 48 h
# value in µM; strip the unit string

C=C(CNCCc1ccc(O)cc1)[C@@H]1CC[C@]2(CO)CC[C@]3(C)[C@H](CC[C@@H]4[C@@]5(C)CCC(NCCc6ccc(O)cc6)C(C)(C)[C@@H]5CC[C@]43C)[C@@H]12 (some centres undefined) :: 2.6
N#Cc1c(-c2ccccc2)cc(-c2ccccc2)n(CCCC(=O)NO)c1=O :: 5.03
Cc1c2c(cc3c1[nH]c1ccccc13)C(c1ccc(Cl)cc1)=NCC2 :: 2.53

Continue with the next compound.
Q) Tell me reported TGI for CC1(C)C(N(O)C(=O)Nc2ccc(Cl)cc2)N(c2ccc(Cl)cc2)C(=O)N1CC(=O)N/N=C/C=C/c1ccc([N+](=O)[O-])o1 (centres undefined) , tested with SF-539 CNS.
A) 3.81

* * *

System: LOX IMVI melanoma
Experimental Details: NCI tumour cell line growth inhibition, 48 h; in the data active = GI50 below about 0.43 µM; inactive = the rest
Returns: one label drawn from Yes = active, No = inactive

Some solved entries appear below for comparison.
CC1(C)C(N(O)C(=O)Nc2ccc(Cl)cc2)N(c2ccc(Cl)cc2)C(=O)N1CC(=O)N/N=C/C=C/c1ccc([N+](=O)[O-])o1 (stereo not drawn) :: No
CC1=C2O[C@]3(O)C=C2C(=C(O)C1=O)[C@@H]1O[C@H](CC[C@H](C)/C=C(\C)C[C@@H](C)C[C@@H]3C)[C@H](C)[C@H](O)[C@H]1C :: Yes
CC(C)=[CH][Sb]([Br])([CH]=C(C)C)([CH]=C(C)C)[c]1ccccc1 :: No
Cn1ncc(NC(=O)c2nc(-c3c(F)cccc3F)sc2N)c1N1CC[C@@H](N)[C@H](F)CC1 :: No

Q) Which result was noted for this molecule in the test: `[N-]=[N+]=NCCCn1c2c(c3cc4c(cc3c1=O)OCO4)C(=O)c1ccccc1-2`
A) No

Q) Another molecule to check: `CCC[CH2][Sn]1([CH2]CCC)[O]C(=O)c2cccc(C)c2[O]1`
A) Yes

Q) Another molecule to check: `O=C(/C=C/c1ccc(Cl)cc1)c1ccc(Nc2nc(Nc3ccc(F)cc3)nc(Nc3ccc(F)cc3)n2)cc1`
A) No

Q) Another molecule to check: `CCN(CC)Cc1cc(Nc2c3ccc(Cl)cc3nc3ccc(OC)cc23)ccc1O`
A) No
